// provenance: ChEMBL document CHEMBL4308864

Measured growth at 10 µM accompanies every entry in the list below.
system: SF-295; experiment: Growth inhibition of human SF295 cells assessed as cell growth at 10^-5 M incubated for 48 hrs by sulforhodamine B assay relative to control; format: functional; details: SF-295, 48 h, read-out: Activity
ASSAY METRIC: growth at 10 µM

INSERT INTO results (chem_smiles, observed_measurement) VALUES
  ('O=C1Nc2ccccc2/C1=C/c1cccn1CCCCn1c2ccccc2c(=O)c2ccccc21', '101%'),
  ('O=C1NC(=O)C(=Cc2cccn2CCCCCn2c3ccccc3c(=O)c3ccccc32)C(=O)N1', '99.4%'),
  ('O=C1/C(=C\c2cccn2CCCCCCn2c3ccccc3c(=O)c3ccccc32)c2ccccc2N1c1c(Cl)cccc1Cl', '99.2%'),
  ('O=C1/C(=C\c2cccn2CCCCn2c3ccccc3c(=O)c3ccccc32)c2ccccc2N1c1c(Cl)cccc1Cl', '98.8%'),
  ('O=C1Nc2ccccc2/C1=C/c1cccn1CCCCCCn1c2ccccc2c(=O)c2ccccc21', '97.2%'),
  ('O=C1/C(=C\c2cccn2CCCCCn2c3ccccc3c(=O)c3ccccc32)c2ccccc2N1c1c(Cl)cccc1Cl', '103%'),
  ('O=C1Nc2ccccc2/C1=C/c1cccn1CCCCCn1c2ccccc2c(=O)c2ccccc21', '93.1%'),
  ('O=C1NC(=O)C(=Cc2cccn2CCCCn2c3ccccc3c(=O)c3ccccc32)C(=O)N1', '78.5%'),
  ('O=C1NC(=O)C(=Cc2cccn2CCCCCCn2c3ccccc3c(=O)c3ccccc32)C(=O)N1', '97.6%'),
  ('O=C1NC(=O)C(=Cc2cccn2CCCn2c3ccccc3c(=O)c3ccccc32)C(=O)N1', '98.7%');

====

tested on: RXF 393; experiment: Growth inhibition of human RXF393 cells assessed as cell growth at 10^-5 M incubated for 48 hrs by sulforhodamine B assay relative to control; format: functional; details: RXF 393, 48 h, read-out: Activity
ASSAY METRIC: growth at 10 µM

INSERT INTO assay_data (chem_smiles, assay_metric, observed_measurement) VALUES
  ('O=C1Nc2ccccc2/C1=C/c1cccn1CCCCCn1c2ccccc2c(=O)c2ccccc21', 'growth at 10 µM', '89.2%'),
  ('O=C1/C(=C\c2cccn2CCCCCn2c3ccccc3c(=O)c3ccccc32)c2ccccc2N1c1c(Cl)cccc1Cl', 'growth at 10 µM', '100%'),
  ('O=C1/C(=C\c2cccn2CCCCCCn2c3ccccc3c(=O)c3ccccc32)c2ccccc2N1c1c(Cl)cccc1Cl', 'growth at 10 µM', '97%'),
  ('O=C1Nc2ccccc2/C1=C/c1cccn1CCCCn1c2ccccc2c(=O)c2ccccc21', 'growth at 10 µM', '88.1%'),
  ('O=C1/C(=C\c2cccn2CCCCn2c3ccccc3c(=O)c3ccccc32)c2ccccc2N1c1c(Cl)cccc1Cl', 'growth at 10 µM', '97.5%'),
  ('O=C1NC(=O)C(=Cc2cccn2CCCCCCn2c3ccccc3c(=O)c3ccccc32)C(=O)N1', 'growth at 10 µM', '106%'),
  ('O=C1Nc2ccccc2/C1=C/c1cccn1CCCCCCn1c2ccccc2c(=O)c2ccccc21', 'growth at 10 µM', '99.2%'),
  ('O=C1NC(=O)C(=Cc2cccn2CCCn2c3ccccc3c(=O)c3ccccc32)C(=O)N1', 'growth at 10 µM', '95.9%'),
  ('O=C1NC(=O)C(=Cc2cccn2CCCCn2c3ccccc3c(=O)c3ccccc32)C(=O)N1', 'growth at 10 µM', '81.4%'),
  ('O=C1NC(=O)C(=Cc2cccn2CCCCCn2c3ccccc3c(=O)c3ccccc32)C(=O)N1', 'growth at 10 µM', '110%');
